Attribute: %Inh
Tested on: PAK7;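 also: KINOMEscan kinase panel screen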
PROTOCOL_CONDITIONS: concentration: 1 μM, replicates: in singlicate; n = 1
MEASURE_NAME: %Inh (%)

COMPOUND	SYSTEM_UNDER_TEST	UNIT_LABEL	VALUE_MEASURED
c1ccc(-c2ccnc3[nH]ccc23)cc1	PAK7	%	4
O=C(Nc1n[nH]c2cc(-c3ccsc3)ccc12)C1CC1	PAK7	%	0
O=C(Nc1n[nH]c2nc(-c3ccco3)c(Br)cc12)C1CCN(Cc2ccccc2)C1.O=C(O)[C@H](O)[C@@H](O)C(=O)O (stereo not shown)	PAK7	%	8
NS(=O)(=O)c1cccc(N/C=C2\C(=O)Nc3ccc(S(=O)(=O)Cc4c(Cl)cccc4Cl)cc32)c1	PAK7	%	4
FC(F)(F)c1ccccc1-c1cc(-c2c[nH]nc2-c2ccccn2)ccn1	PAK7	%	0
COc1ccc(-c2coc3ccc(-c4nnc(C)o4)cc23)cc1	PAK7	%	5
Cc1ccc(NC(=O)Nc2ccccc2)cc1-c1ccc(C(=O)Nc2ccncc2)cc1	PAK7	%	1
O=c1cc(N2CCOCC2)nc2n(Cc3ccccc3F)ccn12	PAK7	%	9
Cc1nccc(-c2c(-c3ccc(F)cc3)ncn2CCCN2CCOCC2)n1.Cl	PAK7	%	0
Nc1ncnc2occ(-c3ccc4c(c3)CCN4C(=O)Cc3cc(F)ccc3F)c12	PAK7	%	12
CNCc1ccc2nc(NC(=O)c3ccc(C(C)(C)C)cc3)cn2c1	PAK7	%	0
CC(C)c1cc(-c2ccc3c(N)n[nH]c3c2)nc(N)n1	PAK7	%	6
Cn1cnc2c(N)ncnc21	PAK7	%	0
CC(=O)c1c(C)c2cnc(Nc3ccn(C)n3)nc2n(C2CCCC2)c1=O	PAK7	%	0
CS(=O)(=O)CCNCc1nc(-c2ccc3ncnc(Nc4ccc(OCc5ccccc5)c(Cl)c4)c3c2)cs1.Cl	PAK7	%	0
COc1ccc(Nc2nccc(N3CCC(NC(=O)C(C)c4ccc(Cl)cc4)C3)n2)cc1 (stereo not shown)	PAK7	%	6
COc1cccc(NC(=O)Nc2ccc(C)c(-c3ccc(C(=O)Nc4ccncc4)cc3)c2)c1	PAK7	%	26
Fc1ccc(-c2nc[nH]c2-c2ccncc2)cc1	PAK7	%	0
Fc1ccc(-c2nn3cccc(F)c3c2-c2ccncc2)cc1	PAK7	%	0

Taken from paper PMC5540273.
